Each item that follows carries a reported GI50.
- Test system: Hs-578T
- Assay Remarks: NCI tumour cell line growth inhibition, 48 h
Active and inactive are the calls of the source. No stated cut-off is given here; in the data, active = GI50 up to about 1.1 µM and inactive = higher.

[
  {
    "Compound": "CC1CCCCCC(=O)c2c(O)cc(O)cc2CC(=O)O1 (centres undefined)",
    "System Under Test": "Hs-578T",
    "GI50": "> 100 µM (inactive)"
  },
  {
    "Compound": "COc1ccc(-c2cc(=O)c3c(O)c(OC)c(OC)c(OC)c3o2)cc1OC",
    "System Under Test": "Hs-578T",
    "GI50": "12.6 µM (inactive)"
  },
  {
    "Compound": "Cc1ccc(S(=O)(=O)N/N=C/C(=C/c2ccc(Cl)cc2)CC(/C=N/NS(=O)(=O)c2ccc(C)cc2)=C\\c2ccc(Cl)cc2)cc1",
    "System Under Test": "Hs-578T",
    "GI50": "3.68 µM (inactive)"
  }
]

Then this compound:
Lab note: need GI50 with Hs-578T for entry CC1OC(=O)c2ccccc2NC1=O (centres undefined) , please look it up.
> 100 µM (inactive)

This collection of values is drawn from ChEMBL document CHEMBL1201862.
